experimental details: Unbound volume of distribution in Wistar Han rat
Assay type: ADME
conditions: in vivo
Listed below: Vdu values for each entry.
reported metric: Vdu

{"compound": "CCn1c(-c2cnc(C)nc2)nc2c(O[C@H]3CCN(C(=O)c4cocn4)C3)ncnc21", "reported metric": "Vdu", "assay result": "3.2 L/kg"}
{"compound": "CCn1c(-c2cnc(C)nc2)nc2c(N[C@H]3CCN(C(=O)C4CC(F)(F)C4)C3)ncnc21", "reported metric": "Vdu", "assay result": "18 L/kg"}
{"compound": "CCn1c(-c2ccc(C(F)(F)F)nc2)nc2c(O[C@H]3CCN(C(=O)C4CCOC4)C3)ncnc21 (stereo partly specified)", "reported metric": "Vdu", "assay result": "3.6 L/kg"}
{"compound": "CCn1c(-c2cnc(C)nc2)nc2c(N[C@H]3CCN(C(=O)C4CCC4)C3)ncnc21", "reported metric": "Vdu", "assay result": "9.2 L/kg"}
{"compound": "CCn1c(-c2cnc(C)nc2)nc2c(O[C@H]3CCN(C(=O)[C@H]4C[C@@H](OC)C4)C3)ncnc21", "reported metric": "Vdu", "assay result": "2.5 L/kg"}
{"compound": "CCn1c(-c2ccc(C(F)(F)F)nc2)nc2c(O[C@H]3CCN(C(=O)N4CC(OC)C4)C3)ncnc21", "reported metric": "Vdu", "assay result": "4.2 L/kg"}
